assay: Half life in rat liver S9 fraction by UPLC-UV-PAD method in presence of NADPH; format: ADME, subcellular
quantity_measured: half-life (h)
Answers are plain numbers, in h.

Tell me the measured half-life of CC(CCN1CCCCC1)c1ccc(-c2ccccc2)cc1.Cl (racemic) , please.
1.89

====

experiment: Solubility of the compound in phosphate buffer at pH 7.4 by UV spectrophotometric analysis; assay type: physicochemical
quantity_measured: solubility (mg/mL)
Give bare numbers, in mg/mL.

What value of solubility has been recorded for this entry: CC(CCN1CCCCC1)c1ccc(-c2ccccc2)cc1.Cl (racemic)
32

====

test: Drug metabolism in human liver S9 fraction assessed as oxidative metabolism after 4 hrs by UPLC-UV-PAD method in presence of NADPH; type: ADME, subcellular; conditions: read-out: Drug metabolism
quantity_measured: metabolised at 4 h
Enter the number, and then the unit.

Please give the measured metabolised at 4 h for this molecule: CC(CCN1CCCCC1)c1ccc(-c2ccccc2)cc1.Cl (racemic)
69%
